# combination Emax per record follows
Test system: GCIY (Gastric Carcinoma)
Assay Notes: combination Emax (second highest fraction inhibited in the dose matrix, 72 h); higher = more inhibition; extreme values may be limits of the assay
Could you keep your reply to the number by itself?

Past entries and their recorded results:
INSERT INTO assay_data (compound, recorded_endpoint, result_number) VALUES
  ('N#Cc1cnc(Nc2cc(NC[C@H]3CNCCO3)c(C(F)(F)F)cn2)cn1 [SRA737] + O=c1[nH]cc(F)c(=O)[nH]1 [5-Fluorouracil] (first compound max 10 µM, 7x7, partner max 20 µM)', 'combination Emax', 0.505),
  ('COc1cccc2c1C(=O)c1c(O)c3c(c(O)c1C2=O)C[C@@](O)(C(=O)CO)C[C@@H]3O[C@H]1C[C@H](N)[C@H](O)[C@H](C)O1 [Doxorubicin] + Cc1cc2ncnn2cc1Nc1ncc2c(n1)n(C1CCOCC1)c(=O)n2C [AZD7648] (first compound max 1 µM, 7x7, partner max 10 µM)', 'combination Emax', 0.663),
  ('Cn1cnc2c(F)c(Nc3ccc(Br)cc3Cl)c(C(=O)NOCCO)cc21 [Selumetinib] + C=CCn1c(=O)c2cnc(Nc3ccc(N4CCN(C)CC4)cc3)nc2n1-c1cccc(C(C)(C)O)n1 [AZD1775] (first compound max 10 µM, partner max 1 µM)', 'combination Emax', 0.475),
  ('CC1(C)CCC(CN2CCN(c3ccc(C(=O)NS(=O)(=O)c4ccc(NCC5CCOCC5)c([N+](=O)[O-])c4)c(Oc4cnc5[nH]ccc5c4)c3)CC2)=C(c2ccc(Cl)cc2)C1 [Venetoclax] + CCN(CCO)CCCOc1ccc2c(Nc3cc(CC(=O)Nc4cccc(F)c4)[nH]n3)ncnc2c1 [AZD2811] (first compound max 1 µM, 7x7, partner max 1 µM)', 'combination Emax', 0.386),
  ('CS(=O)(=O)CCNCc1ccc(-c2ccc3ncnc(Nc4ccc(OCc5cccc(F)c5)c(Cl)c4)c3c2)o1 [Lapatinib] + NC1(c2ccc(-c3nc4ccn5c(=O)[nH]nc5c4cc3-c3ccccc3)cc2)CCC1 [MK-2206] (first compound max 10 µM, 7x7, partner max 10 µM)', 'combination Emax', 0.934);

Query block: Bench note: what combination Emax did CC1(C)CCC(CN2CCN(c3ccc(C(=O)NS(=O)(=O)c4ccc(NCC5CCOCC5)c([N+](=O)[O-])c4)c(Oc4cnc5[nH]ccc5c4)c3)CC2)=C(c2ccc(Cl)cc2)C1 [Venetoclax] + C=CCn1c(=O)c2cnc(Nc3ccc(N4CCN(C)CC4)cc3)nc2n1-c1cccc(C(C)(C)O)n1 [AZD1775] (first compound max 1 µM, partner max 1 µM) show?
Result block: 0.824

Query block: Bench note: what combination Emax did COc1cc2ncnc(Nc3ccc(F)c(Cl)c3)c2cc1OCCCN1CCOCC1 [Gefitinib] + CC(C)n1c(=O)n(C)c2cnc3cc(F)c(-c4ccc(OCCCN5CCCCC5)nc4)cc3c21 [AZD1390] (first compound max 10 µM, 7x7, partner max 0.3 µM) show?
Result block: 0.459
